# MEASURED TARGET: human Claudin-6 (CLDN6) (human) (UniProt P56747)
# ASSAY INFO: FACS titration of labelled mAb on HEK293T-CLDN6-mGFP cells
pEC50: −log10 of the molar value.
If the reported pEC50 equals or exceeds 6, assign YES. If not, assign NO.

Please check the record AB14 (antibody, V domains shown) VH: QVQLQQSGPELVRPGVSVKISCKGSGYTFTDYAMHWVKQSHAKSLEWIGVISTYSGNTNYNQKFQDKATMTVDKSSSTAYMALARLTSDDSAIYYCARRGDYSLYAMDYWGQGTSVTVSS VL: DIVLTQSPASLAVSLGQRATISCKASQSVDYDGDNYVNWYQQKVGQPPKLLISAASNLESGIPARFSGSGSGTDFTLNIHPVEEEDAATYYCQQSNEDPFTFGSGTKLEIK and state if its pEC50 is at or above 6.
NO

Please check the record AB8 (antibody, V domains shown, full-length IgG (ExpiCHO)) VH: QVQLQQSGAELARPGASVKMSCKASGYTFTTYTMHWLKQRPGQGLEWIGYINPRSGYSNYNQKFKDKATLTADKSSNTAYMQLNTLTSEDSKVYYCSRGELGGFAYWGQGTLVTVSA VL: DVVMTQTPLSLPVSLGDQASISCRSSQSLVHSDGNTYLYWYLQKPGQSPKLLIYKVSNRFSGVPDRFSGSGSGTDFTLKISRVEAEDLGVYFCSQSTHVPYTFGGGTKLEIK and state if its pEC50 is at or above 6.
NO

Please check the record AB9 (antibody, V domains shown) VH: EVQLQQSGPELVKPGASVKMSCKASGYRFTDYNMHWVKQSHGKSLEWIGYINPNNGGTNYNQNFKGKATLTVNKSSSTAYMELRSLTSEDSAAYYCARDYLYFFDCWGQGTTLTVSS VL: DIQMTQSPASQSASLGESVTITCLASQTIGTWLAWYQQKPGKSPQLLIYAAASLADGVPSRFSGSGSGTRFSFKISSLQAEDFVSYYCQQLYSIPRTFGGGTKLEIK and state if its pEC50 is at or above 6.
NO

Please check the record AB2 (antibody, V domains shown, full-length IgG (ExpiCHO)) VH: EVKLEESGGGLVQPGGSMKLSCVASGFTFSDYWMNWVRQSPEKGLEWVAQIRLKSDNYATHYAESVKGRFTISRDDSKRSVYLQMNNLRAEDTGTYYCNDGPPSGCWGQGTTLIVSS VL: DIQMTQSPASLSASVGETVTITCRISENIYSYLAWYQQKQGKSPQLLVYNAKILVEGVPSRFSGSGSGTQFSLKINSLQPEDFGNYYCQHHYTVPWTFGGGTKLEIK and state if its pEC50 is at or above 6.
YES

Please check the record AB3 (antibody, V domains shown, full-length IgG (ExpiCHO)) VH: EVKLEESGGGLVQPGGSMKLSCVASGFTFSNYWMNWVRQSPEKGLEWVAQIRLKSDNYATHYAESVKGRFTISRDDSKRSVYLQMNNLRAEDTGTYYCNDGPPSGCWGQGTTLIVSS VL: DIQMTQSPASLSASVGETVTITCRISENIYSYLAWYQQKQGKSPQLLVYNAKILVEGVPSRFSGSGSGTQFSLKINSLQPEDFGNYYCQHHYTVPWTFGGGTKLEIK and state if its pEC50 is at or above 6.
YES

Please check the record AB1 (antibody, V domains shown, full-length IgG (ExpiCHO)) VH: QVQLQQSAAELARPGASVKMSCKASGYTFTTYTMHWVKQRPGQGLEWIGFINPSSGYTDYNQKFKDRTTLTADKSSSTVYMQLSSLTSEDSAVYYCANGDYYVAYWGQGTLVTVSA VL: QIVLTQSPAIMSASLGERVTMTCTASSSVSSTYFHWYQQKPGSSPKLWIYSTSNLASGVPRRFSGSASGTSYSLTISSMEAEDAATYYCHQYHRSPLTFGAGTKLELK and state if its pEC50 is at or above 6.
YES

Please check the record AB12 (antibody, V domains shown, full-length IgG (ExpiCHO)) VH: EVKLMESGGDLVKPGGSLKLSCAASGFTFSSYAMSWVRQTPEKRLEWVASIRSGGTTYYPDSVKGRFTISRDNARNILYLRMSSLRSEDTAIYYCAKVGGNPYPMDYWGQGTSVTVSS VL: DIQMIQSPSSMFASLGDRVSLSCRASQDIGGNLDWYQQKPGGTIKLLIYSTSNLNSGVPSRFSGSGSGSDYSLTITSLESEDFADYYCLQRNAYPLTFGAGTKLELK and state if its pEC50 is at or above 6.
NO

Please check the record AB10 (antibody, V domains shown, full-length IgG (ExpiCHO)) VH: QIQLVQSGPALKKPGETVKISCKASGYTFTDYSMHWIKQAPGKGLKWMGWISTETGEPTYADGFKGRFDFSLETSADTAYLSINNLTNEDTATYFCTRGLWSSFAYWGQGTLVTVSA VL: DVVMTQTPLSLPVSLGDQASISCRASQSLVHSNGNTYLHWFLQKPGQSPKLLIYKVSNRFSGVPDRFSGSGSRTDFTLKISRVEAEDLGVYFCSQITHVPYTFGGGTKLEIK and state if its pEC50 is at or above 6.
NO

Please check the record AB11 (antibody, V domains shown, full-length IgG (ExpiCHO)) VH: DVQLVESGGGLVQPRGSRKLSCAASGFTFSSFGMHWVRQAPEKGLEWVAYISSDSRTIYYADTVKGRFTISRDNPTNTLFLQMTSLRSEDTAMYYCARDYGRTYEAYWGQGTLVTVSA VL: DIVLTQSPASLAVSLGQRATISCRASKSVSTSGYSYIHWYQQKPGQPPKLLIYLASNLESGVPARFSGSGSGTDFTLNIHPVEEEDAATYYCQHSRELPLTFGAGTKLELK and state if its pEC50 is at or above 6.
NO

Please check the record AB4 (antibody, V domains shown, full-length IgG (ExpiCHO)) VH: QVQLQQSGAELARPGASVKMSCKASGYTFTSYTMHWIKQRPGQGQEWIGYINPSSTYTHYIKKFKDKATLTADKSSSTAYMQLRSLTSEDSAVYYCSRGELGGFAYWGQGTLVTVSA VL: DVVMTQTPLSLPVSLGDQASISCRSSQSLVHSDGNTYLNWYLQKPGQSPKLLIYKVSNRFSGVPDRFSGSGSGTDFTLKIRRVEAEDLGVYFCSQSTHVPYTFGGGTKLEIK and state if its pEC50 is at or above 6.
YES
